These measurements were taken from patent US7767659B2.

GI50 for assorted molecules
test system: LoVo; experiment: cells; conditions: Homo sapiens, LoVo, 48 h, read-out: LOVO GI50
Please state the figure in nM; there is no need to write the unit.

Worked cases, GI50 given:
For this molecule ( COc1cc2c(cc1O)CCN[C@]21CS[C@@H]2c3c(OC(C)=O)c(C)c4c(c3[C@H](COC1=O)N1[C@@H]2[C@H]2c3c(cc(C)c(OC)c3O)C[C@@H]([C@@H]1O)N2C)OCO4 [Et-743, ecteinascidin 743, reference compound] ), measured GI50 is 1.56

What the record says about CCCCCCCC(=O)Oc1c(C)c2c(c3c1[C@H]1SC[C@]4(NCCc5cc(O)c(OC)cc54)C(=O)OC[C@@H]3N3C1[C@@H]1N[C@@H](Cc4cc(C)c(OC)c(O)c41)[C@@H]3O)OCO2 (some centres unmarked) [compound 54] : GI50 is 3.85

Data point: COc1c(C)cc2c(c1O)[C@H]1N[C@@H](C2)[C@H](O)N2C1[C@@H]1SCC(=O)C(=O)OC[C@H]2c2c3c(c(C)c(OC(C)=O)c21)OCO3 (some centres unmarked) [compound 43] ; GI50 = 31.2

Looking up COc1c(C)cc2c(c1O)[C@H]1N[C@@H](C2)[C@H](C#N)N2C1[C@@H]1SCC(=O)C(=O)OC[C@H]2c2c3c(c(C)c(OC(C)=O)c21)OCO3 (some centres unmarked) [compound 42] , I found its GI50 recorded as 37.7

Next:
Looking up C=CCN1[C@@H]2c3c(cc(C)c(OC)c3O)C[C@H]1[C@H](O)N1C2[C@@H]2SCC(NC(C)=O)C(=O)OC[C@H]1c1c3c(c(C)c(OC(C)=O)c12)OCO3 (some centres unmarked) [compound 41] , I see its GI50 listed as 37.8
